experiment: qHTS assay to identify small molecule agonists of the estrogen receptor beta (ER-beta) signaling pathway - cell viability counter screen (AID 1259380); settings: ER-beta-bla HEK293T viability, CellTiter-Glo luminescence, 16 h; series mostly up to 92.4 µM; further: nearly all actives have a fitted effect of over 30% in size; further: potency means the concentration at half of the fitted maximal effect
Results filed as inconclusive are left out. Active and inactive are the calls of the source. The call rests on the fitted dose curve; in most records, active means well fitted cell-killing curve with a large enough effect in the repeat runs; inconclusive means weak or mixed curves, or effect the other way; inactive means flat fitted curve, though single readings scatter.
Assay Readout: Potency

Solved cases below.
Compound	Potency
Cc1ccc(Nc2c(F)cccc2Cl)c(CC(=O)O)c1	26.6 µM (active)
CC(C)(O)c1coc(S(=O)(=O)NC(=O)Nc2c3c(cc4c2CCC4)CCC3)c1	inactive
CCN(CC)C(=O)N1CCN(C)CC1	inactive
CCCCCCCC(=O)OCCCCCC	inactive
CC[C@H]1OC(=O)[C@H](C)[C@@H](O[C@H]2C[C@@](C)(OC)[C@@H](O)[C@H](C)O2)[C@H](C)[C@@H](O[C@@H]2O[C@H](C)C[C@H](N(C)C)[C@H]2O)[C@](C)(O)C[C@@H](C)CN(C)[C@H](C)[C@@H](O)[C@]1(C)O	inactive

*Q* Endpoint output: Potency of CN(C)CC/C=C1\c2ccccc2Sc2ccc(Cl)cc21 . Value?
*A* 23.7 µM (active)

*Q* Endpoint output: Potency of O=C(O)c1cccc(C[C@@H]2COc3ccc(OCc4nc5cc(F)ccc5s4)cc3[C@@H]2O)c1 . Value?
*A* inactive

*Q* Endpoint output: Potency of CCN(CC)c1ccc(C(=C2C=CC(=[N+](CC)CC)C=C2)c2ccc(S(=O)(=O)O)cc2S(=O)(=O)[O-])cc1 . Value?
*A* 27.3 µM (active)

*Q* Endpoint output: Potency of OCC(CO)n1cnc(-c2ccc(F)cc2)c1-c1ccnc(Oc2ccccc2)n1 . Value?
*A* inactive

These data points were gathered from PubChem BioAssay (Tox21).
